# System: PPARa:RXRa (NR concentration 270 nM, RXRa partner concentration 90 nM)
# assay.procedure: PBM binding z-score (relative to random genomic background probes); higher = stronger binding; sequences stand for … in GC…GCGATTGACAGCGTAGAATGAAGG
outcome.measure: PBM binding z-score

Some solved cases for reference:
{"columns": ["seq", "PBM binding z-score"],
 "data": [
  ["ATCTCTAGGTAACACGTTCAGTGAAAGAGAGGAC", 0.511],
  ["AGAATGAGGTTATACGTAGATCTGGGAAGAAAGT", 3.14],
  ["AGAACGAGGGCCCGCTGAGTTGATAGCAGAGTAG", -1.78],
  ["CCGAGTAGGTTATGGGGCATTAAGGCAACGGTGA", 1.94],
  ["AATACAGGGTCACTAGGCCAGGGTAGGTACGAAT", 5.76]
]}

Now, please, on to the next sequence.
[ask] # return PBM binding z-score of TCATATAGTTAATACAGGTGAAAGTCGGCATCTA (system: PPARa:RXRa (NR concentration 270 nM, RXRa partner concentration 90 nM))
[reply] 1.8

* * *

# Test system: PPARg homodimer (NR concentration 180 nM)
# assay.procedure: PBM binding z-score (relative to random genomic background probes); higher = stronger binding; sequences stand for … in GC…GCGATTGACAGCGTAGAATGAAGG
Quick reference for PBM binding z-score among some sequences

Some solved cases for reference:
{"columns": ["seq", "reported.value"],
 "data": [
  ["CAAACTAGGTCCCGAAAGGTCAAAGTCGAATGAC", 3.35],
  ["AGTCAAAGTTCATCTAGGTAACGTATGATATGCT", 2.9],
  ["TTACCAAGGTGAAGGTCGTTGTTCCCTCTGTAGA", 0.635],
  ["ATCTCTAGCTAACAAGTTCAGTGAAAGAGAGGAC", 0.988],
  ["CCTATTAGTTGACCATCAGGGCAACCGAAGCTCG", 1.44],
  ["CGAACTAGGTTAAGGACAGTGAATCTCCGCACGC", 1.07],
  ["TCTCGGAGGACACGAAAGGTCAGCGCTCGACATC", 3.31],
  ["TCTAGTTGGTCGAAGGTCACACACTCGAAATGCG", 3.06],
  ["CGAACTAGGTCATTGACAGGACAGTCAATAGTAA", 1.94],
  ["AGTCAATGTTCAGGACGAGGTAACGTAAAGCACG", -0.126]
]}

[ask] Query PBM binding z-score for ATCGAAAGGTCGACGAGGTGCGTATACACCGTTT
[reply] 1.06

[ask] Query PBM binding z-score for ACTTACGGGTCAACGAGGTTATTGCACGCGTATA
[reply] 3.35

[ask] Query PBM binding z-score for GCTCGGAGGACAAGGTCAGAGCTTTGTCCGTAGA
[reply] 0.708

* * *

# Tested on: PPARg:RXRa 90nM:30nM, anti-RXR (NR concentration 90 nM, RXRa partner concentration 30 nM)
# assay.procedure: PBM binding z-score (relative to random genomic background probes); higher = stronger binding; sequences stand for … in GC…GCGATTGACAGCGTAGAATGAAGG
Class 1 (yes): PBM binding z-score at least 2. Class 0 (no): PBM binding z-score below 2.

{"columns": ["seq", "category.label"],
 "data": [
  ["TCTATCAGGCCAGAGGGTCACTCAAGAGGTACGG", "1 (yes)"]
]}

[ask] Determine whether measured PBM binding z-score meets or exceeds 2 for ACTATTTGGTCAGCTGAGGTCACACACAATTCGG
[reply] 0 (no)

[ask] Determine whether measured PBM binding z-score meets or exceeds 2 for CCTAGTTGGTCAAGGTCACACTCGCTATAGGTAC
[reply] 1 (yes)

[ask] Determine whether measured PBM binding z-score meets or exceeds 2 for ATATGTAGGCTATCGGGTCATTCAGTTTGCGCAT
[reply] 1 (yes)

[ask] Determine whether measured PBM binding z-score meets or exceeds 2 for CAAACTAGGTCACGAACGGTCAAAGTCGAATGAC
[reply] 1 (yes)

[ask] Determine whether measured PBM binding z-score meets or exceeds 2 for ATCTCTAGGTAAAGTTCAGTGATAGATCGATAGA
[reply] 1 (yes)

[ask] Determine whether measured PBM binding z-score meets or exceeds 2 for ACTAGCAGGCGAAGGGTCACTCAAGATTAGTCCG
[reply] 1 (yes)

[ask] Determine whether measured PBM binding z-score meets or exceeds 2 for CCTACTGGGCCGCGAAAGGTCATTGATTCAGTGA
[reply] 1 (yes)

Measured values drawn from the supplement of paper PMC6555819 for this set.
